experiment: Mixing with 0.2 M phosphate buffer, light transmittance (660 nm) to evaluate insoluble salt formation; assay type: physicochemical; conditions: mixing ratio 0.33 Vol/Vol (aqueous 100 g/L HMB solution/0.2M phosphate buffer pH 6.80)
RECORDED_ENDPOINT: Transmittance T % (660 nm) (%)
Answers are plain numbers, in %.

// solved cases for Transmittance T % (660 nm) follow
compound="CC(C)(O)CC(=O)[O-].[K+] [Example 5, potassium HMB nonhydrate]" unit_of_measure=% experimental_result=100
compound="CC(C)(O)CC(=O)O.N [Example 7, ammonium HMB nonhydrate]" unit_of_measure=% experimental_result=100
compound="CC(C)(O)CC(=O)[O-].[Na+] [Example 2, sodium HMB nonhydrate]" unit_of_measure=% experimental_result=100

Sure, the documented Transmittance T % (660 nm) for CC(C)(O)CC(=O)[O-].CC(C)(O)CC(=O)[O-].O.[Ca+2] [Calcium HMB hydrate, reference compound] is 0.02

The measured values listed here are drawn from patent US10647653B2.
